biological target: T1, GST-TAX33 PDZ domain fusion protein (tax interaction protein 33 AA73-162; PDZ domain 1 of 1) (UniProt P08515 1-218 = GST); assay: A/G assays
T1 construct: also called TX33
T1 sequence (P08515 1-218, tags or fused parts left off): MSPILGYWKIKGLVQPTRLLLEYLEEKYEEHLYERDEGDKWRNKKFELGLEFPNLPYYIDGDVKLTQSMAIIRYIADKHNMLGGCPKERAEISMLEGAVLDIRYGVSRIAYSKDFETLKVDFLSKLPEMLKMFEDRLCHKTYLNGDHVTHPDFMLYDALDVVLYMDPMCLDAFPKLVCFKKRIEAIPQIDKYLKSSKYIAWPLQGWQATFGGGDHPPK
Ends that are not written are not given here. * marks the point of attachment. Biotin = O=C1N[C@H]2[C@H](CS[C@H]2CCCCC(=O)*)N1
MEASUREMENT_LABEL: binding result

>>> print(df.to_string())
                                     binder  measurement_label  value_measured
0  Biotin-QATSRNGHSARQHVVADTEL [CD34 C-terminal PL peptide AA7L, biotinylated]     binding result      no binding
1  Biotin-PSWRRSSLSESENATSLTTF [BLR-1 C-terminal PL peptide AA45L, biotinylated]     binding result      no binding
2  Biotin-SMQPDNSSDSDYDLHGAQRL [CD5 C-terminal PL peptide AA49L, biotinylated]     binding result      no binding
3  Biotin-QFMTADETRNLQNVDMKIGV [CD44 (long form) C-terminal PL peptide AA9L, biotinylated]     binding result      no binding

Turning to the following binder.
Lab note: measured binding result of Biotin-TTNNNPNSAVNIKKIFTDV [KV1.3 C-terminal PL peptide AA33L, biotinylated] was no binding
